Known kon of a selection of binders
Molecular target: T1, Human ALPP (leucine zipper) (human)
T1 construct: Whole entry: ALPP fused with a cysteine stabilised leucine zipper and His tag; also called hALPP
T1 chain: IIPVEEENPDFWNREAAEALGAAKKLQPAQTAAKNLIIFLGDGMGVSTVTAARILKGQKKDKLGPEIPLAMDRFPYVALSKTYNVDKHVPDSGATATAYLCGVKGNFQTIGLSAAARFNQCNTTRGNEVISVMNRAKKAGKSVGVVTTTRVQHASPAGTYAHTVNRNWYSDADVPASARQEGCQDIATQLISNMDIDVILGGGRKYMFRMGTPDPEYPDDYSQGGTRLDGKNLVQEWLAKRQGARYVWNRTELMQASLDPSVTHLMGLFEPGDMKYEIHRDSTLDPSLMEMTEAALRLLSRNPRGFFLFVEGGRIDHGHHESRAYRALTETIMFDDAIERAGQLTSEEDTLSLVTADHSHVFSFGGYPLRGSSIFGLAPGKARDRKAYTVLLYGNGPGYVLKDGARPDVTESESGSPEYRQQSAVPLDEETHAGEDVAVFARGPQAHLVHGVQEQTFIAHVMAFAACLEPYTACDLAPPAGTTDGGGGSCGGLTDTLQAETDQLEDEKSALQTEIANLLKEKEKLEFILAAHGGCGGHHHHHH
Test: BLI, antigen immobilised
Just the number please, in M⁻¹ s⁻¹, no unit attached.

[[record]]
binder = "C05 (VHH, not shown: small tags and cut ends) VHH: QVQLVESGGGLVQAGGSLRLSCAASRRSFSEYAMGWFRQAPGKEREFVAAIGWSGVIEYADSVKGRFTISRDNAKDTVYLQMNSLKPEDTAVYYCAAGLGIRVVSQTPAYWGQGTQVTVSS"
reading_unit = "M⁻¹ s⁻¹"
numeric_result = 394000

[[record]]
binder = "B01 His (VHH, not shown: small tags and cut ends) VHH: QVQLVESGGGLVQAGGSLRLSCEVTRSPMPIDTMAWYRQAPGRQRELVAIISRSGSTNYADSVKGRFTISRNDTKSTMYKSTMYLKMNTLELEDTGVYYCNAVGLWNGAEYWGQGTQVTVSS"
reading_unit = "M⁻¹ s⁻¹"
numeric_result = 162000

[[record]]
binder = "E10 His (VHH, not shown: small tags and cut ends, also called #265) VHH: QVQLVESGGGLVQAGGSLRLSCAVSGRALSDYNIGWFRQAPGKEREFVARKTWDGSSTRYDDSVKGRFTVSIEDAKNTAYLQMSSLKTEDTAVYYCAAGRYSRARGWEYDYWGQGTQVTVSS"
reading_unit = "M⁻¹ s⁻¹"
numeric_result = 54200


Next up:
Query: Please give the documented kon of A05 His (VHH, not shown: small tags and cut ends, also called #249) VHH: QVQLVESGGGLVQAGASLTLSCAASGFTFNTRSIVWFRQAPGKEREAVSCISKVAGSTYYGDSVQGRFSSSTDNAKNTVSLQMNSLKPEDTAVYTCAASFAPNCYGWSVAANMEYWGEGTMVTVSS
Response: 260000
